Assay: Photophysical parameters of fluorophores in glycerol
Format: physicochemical
Settings: in glycerol

- Chemical Structure: "CC1=N/C(=C\\c2ccc(O)cc2)C(=O)N1CC(=O)OC(C)(C)C"
  λem [nm]: 429
- Chemical Structure: "CN(C)c1ccc(/C=C2N=C(/C=C/c3ccccc3)N(CC(=O)OC(C)(C)C)C\\2=O)cc1"
  λem [nm]: 630
- Chemical Structure: "CN(C)c1ccc(/C=C/C2=NC(=C\\c3ccccc3)/C(=O)N2CC(=O)OC(C)(C)C)cc1"
  λem [nm]: 621
- Chemical Structure: "CN(C)c1ccc(/C=C2N=C(/C=C/c3ccc(N(C)C)cc3)N(CC(=O)OC(C)(C)C)C\\2=O)cc1"
  λem [nm]: 629
- Chemical Structure: "CN(C)c1ccc(/C=C2N=C(/C=C/c3ccc(N(CCO)CCO)cc3)N(CC(=O)N[C@H]3CC[C@H](C(=O)NCCOCCOCCCCCCCl)CC3)C\\2=O)cc1"
  λem [nm]: 628
- Chemical Structure: "CC1=N/C(=C\\c2ccc(N(C)C)cc2)C(=O)N1CC(=O)OC(C)(C)C"
  λem [nm]: 521

* * *

Assay: Photophysical parameters of fluorophores in glycerol
Format: physicochemical
Settings: calculated using B = Φϵ
Reported B (brightness) by item:
Metric Name: B (brightness)

- Chemical Structure: "CN(C)c1ccc(/C=C2N=C(/C=C/c3ccccc3)N(CC(=O)OC(C)(C)C)C\\2=O)cc1"
  Metric Name: "B (brightness)"
  Readout Value: "2,089 M^−1cm^−1"
- Chemical Structure: "CC1=N/C(=C\\c2ccc(N(C)C)cc2)C(=O)N1CC(=O)OC(C)(C)C"
  Metric Name: "B (brightness)"
  Readout Value: "640 M⁻¹ cm⁻¹"
- Chemical Structure: "CN(C)c1ccc(/C=C2N=C(/C=C/c3ccc(N(CCO)CCO)cc3)N(CC(=O)N[C@H]3CC[C@H](C(=O)NCCOCCOCCCCCCCl)CC3)C\\2=O)cc1"
  Metric Name: "B (brightness)"
  Readout Value: "8,734 M^−1cm^−1"
- Chemical Structure: "CN(C)c1ccc(/C=C2N=C(/C=C/c3ccc(N(C)C)cc3)N(CC(=O)OC(C)(C)C)C\\2=O)cc1"
  Metric Name: "B (brightness)"
  Readout Value: "8,786 M^−1cm^−1"
- Chemical Structure: "CN(C)c1ccc(/C=C/C2=NC(=C\\c3ccccc3)/C(=O)N2CC(=O)OC(C)(C)C)cc1"
  Metric Name: "B (brightness)"
  Readout Value: "1,386 M^−1cm^−1"
- Chemical Structure: "CC1=N/C(=C\\c2ccc(O)cc2)C(=O)N1CC(=O)OC(C)(C)C"
  Metric Name: "B (brightness)"
  Readout Value: "20.6 M⁻¹ cm⁻¹"

* * *

Reported λex by item:
Experiment: Photophysical parameters of fluorophores in glycerol
Format: physicochemical
Settings: in glycerol

- Chemical Structure: "CN(C)c1ccc(/C=C2N=C(/C=C/c3ccc(N(C)C)cc3)N(CC(=O)OC(C)(C)C)C\\2=O)cc1"
  Unit Spec: "nm"
  λex: 530
- Chemical Structure: "CN(C)c1ccc(/C=C/C2=NC(=C\\c3ccccc3)/C(=O)N2CC(=O)OC(C)(C)C)cc1"
  Unit Spec: "nm"
  λex: 485
- Chemical Structure: "CC1=N/C(=C\\c2ccc(N(C)C)cc2)C(=O)N1CC(=O)OC(C)(C)C"
  Unit Spec: "nm"
  λex: 450
- Chemical Structure: "CN(C)c1ccc(/C=C2N=C(/C=C/c3ccccc3)N(CC(=O)OC(C)(C)C)C\\2=O)cc1"
  Unit Spec: "nm"
  λex: 530
- Chemical Structure: "CN(C)c1ccc(/C=C2N=C(/C=C/c3ccc(N(CCO)CCO)cc3)N(CC(=O)N[C@H]3CC[C@H](C(=O)NCCOCCOCCCCCCCl)CC3)C\\2=O)cc1"
  Unit Spec: "nm"
  λex: 530
- Chemical Structure: "CC1=N/C(=C\\c2ccc(O)cc2)C(=O)N1CC(=O)OC(C)(C)C"
  Unit Spec: "nm"
  λex: 370
